Origin of values: patent US6743790B2

target: factor VIIa/tissue factor (Homo sapiens, UniProt P08709); construct: human factor VIIa and TF (5 nM and 10 nM, respective final concentration); assay: Factor VIIa (FVIIa) chromogenic assay; conditions: human factor VIIa 5 nM and TF 10 nM, substrate S-2288 500 μM, 25° C., 15 minute preincubation
Sequence (P08709 213-466 limits assumed): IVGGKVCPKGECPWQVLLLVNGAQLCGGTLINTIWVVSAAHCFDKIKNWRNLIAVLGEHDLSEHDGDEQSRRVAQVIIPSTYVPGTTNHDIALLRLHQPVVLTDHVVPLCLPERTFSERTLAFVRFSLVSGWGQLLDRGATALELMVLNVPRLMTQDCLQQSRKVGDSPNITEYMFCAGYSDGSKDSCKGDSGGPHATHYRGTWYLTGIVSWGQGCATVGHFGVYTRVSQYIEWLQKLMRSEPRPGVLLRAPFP
Sequence (P08709 61-212 limits assumed): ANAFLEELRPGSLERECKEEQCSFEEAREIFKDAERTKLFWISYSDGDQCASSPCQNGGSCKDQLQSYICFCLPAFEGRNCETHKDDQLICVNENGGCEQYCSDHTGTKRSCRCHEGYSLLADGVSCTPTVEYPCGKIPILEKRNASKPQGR
Sequence (P13726 33-295 partner): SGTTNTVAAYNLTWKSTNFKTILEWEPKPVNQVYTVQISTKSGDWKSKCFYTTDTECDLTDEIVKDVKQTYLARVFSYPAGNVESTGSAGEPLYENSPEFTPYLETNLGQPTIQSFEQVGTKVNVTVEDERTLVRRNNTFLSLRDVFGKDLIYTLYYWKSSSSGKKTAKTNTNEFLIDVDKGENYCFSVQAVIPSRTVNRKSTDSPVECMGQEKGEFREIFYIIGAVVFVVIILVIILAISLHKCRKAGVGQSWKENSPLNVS
Provide the reported Ki of each item.
Please report the result as a number followed by the unit.

INPUT: Kindly indicate its recorded Ki. Item: C[C@H](NC(=O)CNC(=O)Nc1ccc(C(=N)N)cc1)c1ccc2ccccc2c1 [Example 30]
OUTPUT: 26 nM

INPUT: Tell me its Ki given N=C(N)c1ccc(NC(=O)NCC(=O)NCc2ccc(Cl)c(Cl)c2)cc1 [Example 3] as the entry.
OUTPUT: 970 nM

INPUT: Please report Ki for the following molecule: COc1ccc(Oc2ccc(C(C)NC(=O)CNC(=O)Nc3ccc(C(=N)N)cc3)cc2)cc1 (centres unmarked) [Example 36]
OUTPUT: 83 nM

INPUT: Name the recorded Ki of the item N=C(N)c1ccc(NC(=O)NCC(=O)N[C@H]2CCCc3ccccc32)cc1 [Example 45] in your answer.
OUTPUT: 1410 nM

INPUT: Hello, please tell me recorded Ki for this one: CN(C)c1ccc(CNC(=O)CNC(=O)Nc2ccc(C(=N)N)cc2)cc1 [Example 4]
OUTPUT: 1940 nM

INPUT: For the molecule C[C@H](NC(=O)Nc1ccc(C(=N)N)cc1)C(=O)NCc1ccc(C(=N)N)cc1 [Example 1] , give its reported Ki.
OUTPUT: 14900 nM

INPUT: Note down Ki recorded for CC(NC(=O)CNC(=O)Nc1ccc(C(=N)N)cc1)c1ccc2c(c1)NC(=O)CO2 (centres unmarked) [Example 61]
OUTPUT: 23 nM

INPUT: Dear colleague, please send me the reported Ki for CC(NC(=O)CNC(=O)Nc1ccc(C(=N)N)cc1)c1ccc(NC(=O)c2cccc(Oc3ccccc3)c2)cc1 (centres unmarked) [Example 52] when you can.
OUTPUT: 12 nM

INPUT: Provide measured Ki value, entry: N=C(N)c1ccc(NC(=O)NCC(=O)N[C@H]2CCc3ccccc32)cc1 [Example 44]
OUTPUT: 1500 nM

INPUT: Indicate its recorded Ki; the molecule in question is CC(NC(=O)CNC(=O)Nc1ccc(C(=N)N)c(Cl)c1)c1ccc2c(c1)OCCO2 (centres unmarked) [Example 68]
OUTPUT: 3940 nM

INPUT: Specify reported Ki for the molecule shown: CC(NC(=O)CNC(=O)Nc1ccc(C(=N)N)cc1)c1ccc(C(F)(F)F)cc1C(F)(F)F (centres unmarked) [Example 60]
OUTPUT: 27 nM

INPUT: Give a short answer stating reported Ki for N=C(N)c1ccc(NC(=O)NCC(=O)NCc2cccc(Cl)c2)cc1 [Example 6] .
OUTPUT: 2170 nM

INPUT: Check the records and state Ki for N=C(N)c1ccc(NC(=O)NCC(=O)NCc2ccncc2)cc1 [Example 40]
OUTPUT: 7890 nM

INPUT: Identify measured Ki corresponding to CC(NC(=O)CNC(=O)Nc1ccc(C(=N)N)cc1)c1ccc(NC(=O)C2CCNCC2)cc1 (centres unmarked) [Example 49]
OUTPUT: 13 nM

INPUT: Consider the molecule C[C@H](NC(=O)CNC(=O)Nc1ccc(C(=N)N)c(F)c1)c1cccc(Br)c1 [Example 69] and give its recorded Ki.
OUTPUT: 116 nM

INPUT: Give the reported value of Ki for this record: N=C(N)c1ccc(NC(=O)NCC(=O)NC(Cc2ccccc2)c2ccccc2)cc1 (centres unmarked) [Example 15]
OUTPUT: 6300 nM

INPUT: Indicate the recorded Ki value for this molecule: N=C(N)c1ccc(NC(=O)NCC(=O)NC(c2ccccc2)c2ccncc2)cc1 (centres unmarked) [Example 41]
OUTPUT: 840 nM
